biological target: KRAS G12D (Homo sapiens, UniProt P01116, G12D); test: biochemical
Sequence (P01116 1-188 isoform P01116-2 G12D): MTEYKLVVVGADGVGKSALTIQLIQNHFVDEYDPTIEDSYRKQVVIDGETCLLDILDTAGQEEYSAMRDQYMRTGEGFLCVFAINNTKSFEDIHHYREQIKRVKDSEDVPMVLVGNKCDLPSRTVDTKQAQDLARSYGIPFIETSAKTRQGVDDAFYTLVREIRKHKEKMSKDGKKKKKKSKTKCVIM
metric.name: IC50

Recorded IC50, per entry:
molecule="C#Cc1c(F)ccc2cc(O)cc(-c3ncc4c(N5CCCC(CO)C5)nc(OC[C@@]56CCCN5C[C@H](F)C6)nc4c3F)c12 (single isomer, unassigned)" assay_value="≥ 100 µM"
molecule=CN1CCC[C@@]2(COc3nc(N4CCC[C@@](C)(O)C4)c4cnc(-c5cnc(OC(F)F)c6ccccc56)c(F)c4n3)CCC[C@@H]12 assay_value="> 100 µM"

Here is the next item to consider.
Just so you know, measured IC50 for C#Cc1c(F)ccc2cc(O)cc(-c3ncc4c(N5CCOCCC5C)nc(OC[C@]56CCC[C@H]5N(C)CCC6)nc4c3F)c12 (stereo partly drawn) [Example 1-93] came out at 0.19 µM

====

Examples of molecules with documented IC50 follow.
target: KRAS G12C (Homo sapiens, UniProt P01116, G12C); assay: Cellular KRAS:RAF Disruption Assay (NanoBRET), KRAS G12C; conditions: HEK293 T cells co-expressing RAF1 and KRAS G12C, 24 hours; read-out: RAS::RAF binding via NanoBRET IC50, KRAS G12C
Sequence (P01116 1-188 isoform P01116-2 G12C): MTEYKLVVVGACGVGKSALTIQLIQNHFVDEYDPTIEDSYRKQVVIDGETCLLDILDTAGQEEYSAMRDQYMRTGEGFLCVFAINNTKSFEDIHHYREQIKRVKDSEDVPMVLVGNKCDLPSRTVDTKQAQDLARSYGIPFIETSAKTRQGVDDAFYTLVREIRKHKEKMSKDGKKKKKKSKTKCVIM

Value (IC50, KRAS G12C (Homo sapiens, UniProt P01116, G12C)) for record C#Cc1c(F)ccc2cc(O)cc(-c3ncc4c(N5CC6CCC(C5)N6C(=O)C5CC5)nc(OC[C@@]56CCCN5C[C@H](F)C6)nc4c3F)c12 [Example 6-2] = 117 nM

Kindly note: KRAS G12C (Homo sapiens, UniProt P01116, G12C), C#Cc1c(F)ccc2cc(O)cc(-c3ccc4c(N5CCCOCC5)nc(OC[C@]56CCC[C@H]5N(C)CCC6)nc4c3F)c12 [Example 2-3] , IC50 value reported: 24 nM

Given the molecule C#Cc1c(F)ccc2cc(O)cc(-c3ncc4c(N5CCOCC5)nc(OC[C@@]56CCCN5C[C@H](F)C6)nc4c3F)c12 [Example 1-1] and test system KRAS G12C (Homo sapiens, UniProt P01116, G12C), the measured IC50 is 25 nM

Record C#Cc1c(F)ccc2cc(O)cc(-c3ccc4c(N5CCCC(C)(O)C5)nc(OC[C@]56CCC[C@H]5N(C)CCC6)nc4c3F)c12 (stereo partly drawn) [Example 2-72] ; system KRAS G12C (Homo sapiens, UniProt P01116, G12C); IC50 = 12.8 nM

Entry C#Cc1c(F)ccc2cc(O)cc(-c3ncc4c(N5CCCC(C)(O)C5)nc(OC[C@]56CCC[C@H]5N(C)CCC6)nc4c3F)c12 (single isomer, unassigned) [Example 1-89] ; assay system KRAS G12C (Homo sapiens, UniProt P01116, G12C); IC50 recorded at 9.3 nM

Readout IC50 for C#Cc1c(F)ccc2cc(O)cc(-c3ncc4c(N5C[C@H]6C[C@@H]5CO6)nc(OC[C@@]56CCCN5C[C@H](F)C6)nc4c3F)c12 [Example 1-37] , test system KRAS G12C (Homo sapiens, UniProt P01116, G12C), was 16.6 nM

====

target: KRAS G12D (Homo sapiens, UniProt P01116, G12D); experiment: biochemical
metric.name: pIC50
Please note pIC50 is a logarithmic value: minus log10 of concentration in mol/L. Answer with that number alone.

molecule="C#Cc1c(F)ccc2cc(O)cc(-c3ncc4c(N5CCOCCC5C)nc(OC[C@]56CCC[C@H]5N(C)CCC6)nc4c3F)c12 (single isomer, unassigned) [Example 1-142]" measured_target="KRAS G12D (Homo sapiens, UniProt P01116, G12D)" metric_name=pIC50 assay_value=6.25

API: the following record is the query input.
The reported value for C#Cc1c(F)ccc2cc(O)cc(-c3ncc4c(N5CC6CCC(C5)N6C(=O)C5CC5)nc(OC[C@@]56CCCN5C[C@H](F)C6)nc4c3F)c12 in terms of pIC50 is 6.05
